Target: Mast/stem cell growth factor receptor Kit (Homo sapiens)
Experiment: Inhibition of wild type cKIT in human GIST-T1 cells assessed as downregulation of AKT phosphorylation at S473 after 1 hr by Western blot analysis
Format: cell-based
Reported Metric: EC50

### Prompt Retrieve EC50 on Mast/stem cell growth factor receptor Kit (Homo sapiens); query CCC(=O)NCC1CCN(c2ccc(NC(=O)Nc3cccc(Oc4ccnc5cc(OC)c(OC)cc45)c3)cc2C(F)(F)F)CC1
### Response < 100 nM

---

Experiment: Apparent volume of distribution in Sprague-Dawley rat at 1 mg/kg, iv measured up to 8 hrs post dosing
Assay type: ADME, organism-based
Conditions: in vivo, read-out: Vz
Reported Metric: Vd (L/kg)
Write down the numeric answer in L/kg and omit the unit.

### Prompt Indicate the recorded Vd value for this molecule: CCC(=O)NCC1CCN(c2ccc(NC(=O)Nc3cccc(Oc4ccnc5cc(OC)c(OC)cc45)c3)cc2C(F)(F)F)CC1
### Response 7.91

---

Target: Mast/stem cell growth factor receptor Kit (Homo sapiens)
Test: Inhibition of wild type cKIT in human GIST-T1 cells assessed as downregulation of ERK phosphorylation at T202//204 after 1 hr by Western blot analysis
Assay type: cell-based
pEC50: −log10 of the molar value.
Reported Metric: pEC50

### Prompt Indicate the recorded pEC50 value for this molecule: CCC(=O)NCC1CCN(c2ccc(NC(=O)Nc3cccc(Oc4ccnc5cc(OC)c(OC)cc45)c3)cc2C(F)(F)F)CC1
### Response > 7.00

---

Molecular target: Mast/stem cell growth factor receptor Kit (Homo sapiens, UniProt P10721, T670I)
Sequence (P10721 26-976 T670I limits assumed): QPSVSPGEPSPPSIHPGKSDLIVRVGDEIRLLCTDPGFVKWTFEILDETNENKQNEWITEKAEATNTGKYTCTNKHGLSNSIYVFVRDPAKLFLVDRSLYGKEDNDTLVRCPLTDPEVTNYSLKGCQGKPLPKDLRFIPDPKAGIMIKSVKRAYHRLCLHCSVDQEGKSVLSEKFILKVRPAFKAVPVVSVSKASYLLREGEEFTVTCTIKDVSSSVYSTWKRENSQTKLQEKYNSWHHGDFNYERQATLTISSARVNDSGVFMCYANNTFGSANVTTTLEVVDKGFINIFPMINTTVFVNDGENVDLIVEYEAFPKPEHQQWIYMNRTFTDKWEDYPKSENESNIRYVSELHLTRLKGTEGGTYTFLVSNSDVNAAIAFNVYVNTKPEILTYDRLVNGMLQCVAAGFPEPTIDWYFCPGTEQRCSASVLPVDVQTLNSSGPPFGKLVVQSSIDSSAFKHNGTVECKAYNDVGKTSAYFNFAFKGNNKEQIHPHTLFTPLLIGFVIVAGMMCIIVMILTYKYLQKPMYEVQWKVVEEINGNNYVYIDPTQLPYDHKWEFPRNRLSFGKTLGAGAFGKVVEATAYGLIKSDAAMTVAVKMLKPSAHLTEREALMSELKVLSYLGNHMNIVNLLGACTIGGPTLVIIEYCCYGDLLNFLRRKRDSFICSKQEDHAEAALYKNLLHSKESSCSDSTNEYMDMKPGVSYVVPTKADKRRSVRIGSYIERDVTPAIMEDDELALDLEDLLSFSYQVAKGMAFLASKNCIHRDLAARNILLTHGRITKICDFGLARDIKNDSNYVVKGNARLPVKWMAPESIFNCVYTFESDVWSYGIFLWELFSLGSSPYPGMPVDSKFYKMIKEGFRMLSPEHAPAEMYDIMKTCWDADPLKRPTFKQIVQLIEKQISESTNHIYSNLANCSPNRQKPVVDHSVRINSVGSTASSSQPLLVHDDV
Assay: Inhibition of cKIT T670I mutant autophosphorylation at Y719 in human GIST-5R cells at 0.1 to 3 uM after 1 hr by Western blot analysis
Type: cell-based
pEC50: −log10 of the molar value.
Reported Metric: pEC50

### Prompt Indicate the recorded pEC50 value for this compound: CCC(=O)NCC1CCN(c2ccc(NC(=O)Nc3cccc(Oc4ccnc5cc(OC)c(OC)cc45)c3)cc2C(F)(F)F)CC1
### Response > 7.00

---

Assay: Cytotoxicity mouse BA/F3 cells assessed as cell growth inhibition after 72 hrs by cell titer-glo assay
Assay type: cell-based, BaF3
Reported Metric: GI50 at 72 h

### Prompt Indicate the recorded GI50 at 72 h value for this compound: COc1cc2nccc(Oc3cccc(NC(=O)Nc4ccc(N5CCC(NC(=O)CN6CCCC(C)C6)CC5)c(C(F)(F)F)c4)c3)c2cc1OC (centres undefined)
### Response 0.87 µM

---

Experiment: AUC (0 to infinity) in Sprague-Dawley rat at 1 mg/kg, iv measured up to 8 hrs post dosing
Type: ADME, organism-based
Set-up: dose 1 mg/kg, route intravenous, time infinity
Conditions: in vivo
Reported Metric: AUC (ng·h/mL)
Write down the numeric answer in ng·h/mL and omit the unit.

### Prompt Indicate the recorded AUC value for this compound: CCC(=O)NCC1CCN(c2ccc(NC(=O)Nc3cccc(Oc4ccnc5cc(OC)c(OC)cc45)c3)cc2C(F)(F)F)CC1
### Response 385

---

Test: Apparent clearance in Sprague-Dawley rat at 1 mg/kg, iv measured up to 8 hrs post dosing
Type: ADME, organism-based
Details: in vivo, read-out: CL(app) (converted)
Reported Metric: clearance
Include the unit right after the number.

### Prompt Indicate the recorded clearance value for this compound: CCC(=O)NCC1CCN(c2ccc(NC(=O)Nc3cccc(Oc4ccnc5cc(OC)c(OC)cc45)c3)cc2C(F)(F)F)CC1
### Response 46 mL/min/kg
